Data provenance: patent US5753715A

Overview of reported MIC K. pneum. oc1943 across a group of molecules:
# System: K. pneum. oc1943
# Experiment description: MIC, microdilution broth method (NCCLS)
# Type: cell-based
# Protocol conditions: cation supplemented Mueller Hinton broth, 35° C., 16-20 hours; unit assumed
Numbers only here, please. The scale is µg/mL.

Answered cases to consult:
>>> data_value("C1=CC(CCOc2ccc(CCCNCCN3CCCC3)cc2)(Cc2ccccc2)CCC1 (stereo not drawn)")
32
>>> data_value("Clc1ccc(CC2(CCOc3ccc(CCNCCN4CCCC4)cc3)C=CCCC2)cc1 (stereo not drawn)")
32
>>> data_value("NCCCc1cnc(NCCC2(Cc3ccccc3)C=CCCC2)nc1 (stereo not drawn)")
128

Continue with the molecule presented below.
[Q] Please look up its MIC K. pneum. oc1943: CC1COc2c(N3CCN(C)CC3)c(F)cc3c(=O)c(C(=O)O)cn1c23 (stereo not drawn) [OFX, reference compound]
[A] 0.25

* * *

# System: Kinase A and SpoOF (Bacillus subtilis)
# Sequence (P16497 whole entry): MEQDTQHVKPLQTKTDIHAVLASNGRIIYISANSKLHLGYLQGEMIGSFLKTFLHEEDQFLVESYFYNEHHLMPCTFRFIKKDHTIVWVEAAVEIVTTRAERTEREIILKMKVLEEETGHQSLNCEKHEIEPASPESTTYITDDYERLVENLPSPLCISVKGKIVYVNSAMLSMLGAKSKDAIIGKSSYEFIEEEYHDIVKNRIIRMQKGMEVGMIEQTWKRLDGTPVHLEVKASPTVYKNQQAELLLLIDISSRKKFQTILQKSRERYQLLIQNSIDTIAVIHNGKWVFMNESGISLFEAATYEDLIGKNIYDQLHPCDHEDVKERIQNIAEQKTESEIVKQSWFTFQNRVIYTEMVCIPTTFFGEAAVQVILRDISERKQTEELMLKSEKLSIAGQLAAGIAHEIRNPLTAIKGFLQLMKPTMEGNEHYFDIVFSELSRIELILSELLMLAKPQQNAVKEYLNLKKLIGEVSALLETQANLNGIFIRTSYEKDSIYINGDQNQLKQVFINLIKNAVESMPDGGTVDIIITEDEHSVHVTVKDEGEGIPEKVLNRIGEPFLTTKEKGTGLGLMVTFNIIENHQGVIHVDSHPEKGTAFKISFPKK
# Experiment description: Autophosphorylation of Kinase A and Transphosphorylation of SPoOF Assay
# Type: biochemical
# Protocol conditions: inhibition of Kinase A autophosphorylation / SpoOF transphosphorylation, [32P]ATP, gel, phosphoimager
Field 'label' (enum: Satisfied / Not satisfied). Set to Satisfied when IC50 is strictly under 50 mM; else Not satisfied.

>>> class_assignment("COc1cc(CN)ccc1OCCC1(Cc2ccccc2)C=CCCC1 (stereo not shown)")
"Not satisfied"

[Q] Threshold test, IC50 < 50 mM: NCCc1ccc(OCCC2(Cc3ccccc3)CCCCC2)cc1
[A] Satisfied

[Q] Threshold test, IC50 < 50 mM: CNCCCc1ccc(OCCC2(CCO)C=CCCC2)cc1 (stereo not shown)
[A] Not satisfied

[Q] Threshold test, IC50 < 50 mM: NCCc1ccc(OCCC2(Cc3ccccc3)C=CCCC2)cc1 (stereo not shown)
[A] Satisfied

[Q] Threshold test, IC50 < 50 mM: CNCCCc1ccc(OCCC2(Cc3ccc(OC)cc3)C=CCCC2)cc1 (stereo not shown)
[A] Not satisfied

[Q] Threshold test, IC50 < 50 mM: C1=CC(CCOc2ccc(CCCNCCN3CCOCC3)cc2)(Cc2ccccc2)CCC1 (stereo not shown)
[A] Not satisfied

[Q] Threshold test, IC50 < 50 mM: NCCc1ccc(OCCC2(Cc3cc(Cl)cc(Cl)c3)C=CCCC2)cc1 (stereo not shown)
[A] Satisfied

[Q] Threshold test, IC50 < 50 mM: N=C(N)NCCCc1ccc(OCCC2(Cc3ccccc3)C=CCCC2)cc1 (stereo not shown)
[A] Not satisfied

[Q] Threshold test, IC50 < 50 mM: NCCCc1ccc(OCCC2(Cc3ccc(Cl)cc3)C=CCCC2)cc1 (stereo not shown)
[A] Not satisfied

[Q] Threshold test, IC50 < 50 mM: COc1ccc(CC2(CCOc3ccc(CCNC(=N)N)cc3)C=CCCC2)cc1 (stereo not shown)
[A] Satisfied

[Q] Threshold test, IC50 < 50 mM: N=C(N)NCc1ccc(OCCC2(Cc3cccc(Cl)c3)C=CCCC2)cc1 (stereo not shown)
[A] Satisfied

[Q] Threshold test, IC50 < 50 mM: COc1ccc(CC2(CCOc3ccc(CCCNCCN4CCCC4)cc3)C=CCCC2)cc1 (stereo not shown)
[A] Not satisfied

[Q] Threshold test, IC50 < 50 mM: NCc1cccc(OCCC2(Cc3cc(Cl)cc(Cl)c3)C=CCCC2)c1 (stereo not shown)
[A] Not satisfied

[Q] Threshold test, IC50 < 50 mM: Clc1ccc(CC2(CCOc3ccc(CCNCCN4CCCC4)cc3)C=CCCC2)cc1 (stereo not shown)
[A] Not satisfied

[Q] Threshold test, IC50 < 50 mM: COc1ccc(CC2(CCOc3ccccc3CN)C=CCCC2)cc1 (stereo not shown)
[A] Not satisfied

[Q] Threshold test, IC50 < 50 mM: Clc1cccc(CC2(CCOc3ccc(CCNCCN4CCCC4)cc3)C=CCCC2)c1 (stereo not shown)
[A] Satisfied

[Q] Threshold test, IC50 < 50 mM: C1=CC(CCOc2ccc(CCNCCN3CCCC3)cc2)(Cc2ccccc2)CCC1 (stereo not shown)
[A] Not satisfied

[Q] Threshold test, IC50 < 50 mM: C1=CC(CCOc2ccc(CCCNCCN3CCCC3)cc2)(Cc2ccccc2)CCC1 (stereo not shown)
[A] Not satisfied

[Q] Threshold test, IC50 < 50 mM: NCCc1ccc(OCCC2(Cc3ccc(Cl)cc3)C=CCCC2)cc1 (stereo not shown)
[A] Not satisfied
